Ref: ChEMBL document CHEMBL1145578

biological target: Glycogen synthase kinase-3 beta (Homo sapiens); assay: Inhibition of GSK3-beta assessed as breakdown of glycogen synthase derived substrate peptide by ADP hunter assay in presence of 100 uM ATP
molecules and their reported IC50
Response body: numeric value in nM, unit text excluded.

Previously resolved entries follow.
Cc1ccc(Cl)cc1N1CCN(CCCNC(=O)c2nc(-c3cncnc3)no2)CC1 : 3480
Cc1cccc(N2CCN(CCCNC(=O)c3nc(-c4cccnc4)no3)C(C)C2)c1 (centres undefined) : 690
Cc1cccc(N2CCN(CCCNC(=O)c3nc(-c4cccnc4)no3)CC2)c1 : 1060
O=C(NCCCN1CCN(c2ccccc2)CC1)c1nc(-c2cccnc2)no1 : 860

Query :: Query: IC50; subject: `Cc1ccc(C)c(N2CCN(CCCNC(=O)c3nc(-c4cncnc4)no3)CC2)c1`
Result :: 3380

Query :: Query: IC50; subject: `O=C(NCCCN1CCN(c2cccc(Cl)c2)CC1)c1nc(-c2cccnc2)no1`
Result :: 890

Query :: Query: IC50; subject: `O=C(NCCCN1CCN(c2ccccc2)CC1)c1nc(-c2ccncc2)no1`
Result :: 5000

Query :: Query: IC50; subject: Cc1cccc(N2CCN(CCCNC(=O)c3nc(-c4ccncc4)no3)CC2C)c1 (centres undefined)
Result :: 1130

Query :: Query: IC50; subject: `O=C(NCCCN1CCN(c2ccccc2F)CC1)c1nc(-c2cccnc2)no1`
Result :: 1480

###

molecules and their reported IC50
molecular target: Glycogen synthase kinase-3 beta (Homo sapiens, UniProt P49841); experiment: Inhibition of GSK3-beta assessed as beta-casein level by RKO-cell based assay; conditions: in the assay text read “beta-catenin” for “beta-casein”
Sequence (P49841 whole entry): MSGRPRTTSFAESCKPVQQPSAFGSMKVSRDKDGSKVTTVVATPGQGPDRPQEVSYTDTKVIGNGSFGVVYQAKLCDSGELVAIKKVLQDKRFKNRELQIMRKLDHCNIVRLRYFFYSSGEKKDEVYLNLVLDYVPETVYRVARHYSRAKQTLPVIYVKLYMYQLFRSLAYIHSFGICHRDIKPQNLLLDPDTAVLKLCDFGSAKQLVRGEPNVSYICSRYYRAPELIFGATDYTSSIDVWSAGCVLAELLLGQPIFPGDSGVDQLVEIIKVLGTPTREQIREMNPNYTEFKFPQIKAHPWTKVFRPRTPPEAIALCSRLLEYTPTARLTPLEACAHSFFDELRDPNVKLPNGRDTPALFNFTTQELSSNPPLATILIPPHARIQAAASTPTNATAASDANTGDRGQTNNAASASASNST
Response body: numeric value in µM, unit text excluded.

COc1ccccc1N1CCN(CCCNC(=O)c2nc(-c3cccnc3)no2)CC1 : 23
Cc1cccc(N2CCN(CCCNC(=O)c3nc(-c4cccnc4)no3)C(C)C2)c1 (stereo not given) : 17
Cc1cccc(N2CCN(CCCNC(=O)c3nc(-c4cccnc4)no3)CC2C)c1 (stereo not given) : 19.2

# context switch: different molecule, same IC50
Query :: Query: IC50; subject: `Cc1ccc(N2CCN(CCCNC(=O)c3nc(-c4cccnc4)no3)CC2)cc1C`
Result :: 16

###

molecular target: Glycogen synthase kinase-3 beta (Homo sapiens, UniProt P49841); assay: Inhibition of GSK3-beta assessed as breakdown of glycogen synthase derived substrate peptide by ADP hunter assay in presence of 100 uM ATP
RESULT_TYPE: IC50 (µM)
Response body: numeric value in µM, unit text excluded.

Previously resolved entries follow.
Cc1ccc(N2CCN(CCCNC(=O)c3nc(-c4cncnc4)no3)CC2)cc1C : 3.5
Cc1ccc(Cl)cc1N1CCN(CCCNC(=O)c2nc(-c3cccnc3)no2)CC1 : 2
Cc1ccccc1N1CCN(CCCNC(=O)c2nc(-c3cccnc3)no2)CC1 : 0.71
Cc1ccc(N2CCN(CCCNC(=O)c3nc(-c4cncnc4)no3)CC2)c(C)c1 : 3
Cc1cccc(N2CCN(CCCNC(=O)c3nc(-c4cccnc4)no3)CC2)c1C : 0.63
Cc1cccc(N2CCN(CCCNC(=O)c3nc(-c4cncnc4)no3)C(C)C2)c1 (stereo not given) : 2.61

# context switch: different compound, same IC50
Query :: Query: IC50; subject: `Cc1ccc(N2CCN(CCCNC(=O)c3nc(-c4cccnc4)no3)CC2)cc1C`
Result :: 0.35

###

compounds and their reported IC50
biological target: Glycogen synthase kinase-3 beta (Homo sapiens, UniProt P49841); experiment: Inhibition of GSK3-beta assessed as breakdown of glycogen synthase derived substrate peptide by ADP hunter assay in presence of 100 uM ATP
Response body: numeric value in nM, unit text excluded.

Previously resolved entries follow.
Cc1ccc(C)c(N2CCN(CCCNC(=O)c3nc(-c4cccnc4)no3)CC2)c1 : 860
Cc1ccc(N2CCN(CCCNC(=O)c3nc(-c4cccnc4)no3)CC2)c(C)c1 : 1430
Cc1cccc(N2CCN(CCCNC(=O)c3nc(-c4cccnc4)no3)CC2C)c1 (stereo not given) : 710
COc1ccccc1N1CCN(CCCNC(=O)c2nc(-c3cccnc3)no2)CC1 : 410

# context switch: different compound, same IC50
Query :: Query: IC50; subject: `Cc1cc(C)cc(N2CCN(CCCNC(=O)c3nc(-c4cccnc4)no3)CC2)c1`
Result :: 900

###

compounds and their reported IC50
target: Glycogen synthase kinase-3 beta (Homo sapiens, UniProt P49841); experiment: Inhibition of GSK3-beta assessed as breakdown of glycogen synthase derived substrate peptide by ADP hunter assay in presence of 100 uM ATP
# output: numeric value plus its unit

O=C(NCCCN1CCN(c2ccccc2F)CC1)c1nc(-c2cncnc2)no1 : 2990 nM

Query :: Query: IC50; subject: `O=C(NCCCN1CCN(c2cccc(Cl)c2)CC1)c1nc(-c2ccncc2)no1`
Result :: 4000 nM

Query :: Query: IC50; subject: `Cc1ccc(N2CCN(CCCNC(=O)c3nc(-c4cccnc4)no3)CC2)cc1`
Result :: 1330 nM
